The reported numbers originate from patent US9670227B2.

Target: Mcl-1 protein (UniProtKB primary accession number: Q07820) (Homo sapiens, UniProt Q07820)
Sequence (Q07820 whole entry): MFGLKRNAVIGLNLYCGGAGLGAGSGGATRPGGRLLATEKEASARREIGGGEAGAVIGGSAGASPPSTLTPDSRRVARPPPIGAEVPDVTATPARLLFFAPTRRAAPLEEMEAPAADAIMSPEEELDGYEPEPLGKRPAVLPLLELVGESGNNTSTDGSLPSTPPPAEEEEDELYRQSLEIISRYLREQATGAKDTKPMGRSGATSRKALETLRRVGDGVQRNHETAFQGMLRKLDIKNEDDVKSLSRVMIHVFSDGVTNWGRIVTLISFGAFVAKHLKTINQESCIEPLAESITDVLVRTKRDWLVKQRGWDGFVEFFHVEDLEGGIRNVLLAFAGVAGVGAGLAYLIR
Test: Inhibition of Mcl-1 by fluorescence polarisation, Method 1
Assay type: binding
Conditions: fluorescence polarisation; Method 1, or Method 2; read-out: IC50 (M) Mcl-1 FP
Measure: IC50 (M)

Compound: COc1ccccc1CC(Oc1ncnc2sc(-c3cccc(OC(F)(F)F)c3)c(-c3ccc(OCCN4CCN(C)CC4)c(Cl)c3C)c12)C(=O)O (stereo not drawn)
Measure: IC50
Value Reported: 3.9e-07

Compound: CCc1sc2ncnc(OC(Cc3ccccc3)C(=O)O)c2c1-c1cc([N+](=O)[O-])c(OCCN2CCN(C)CC2)c(Cl)c1C (stereo not drawn)
Measure: IC50
Value Reported: 3.2e-07

Compound: COc1ccccc1-c1nccc(COc2ccccc2CC(Oc2ncnc3sc(-c4ccc(OCCN5CCOCC5)cc4)c(-c4ccc(OCCN5CCN(C)CC5)c(Cl)c4C)c23)C(=O)O)n1 (single isomer, unassigned) [Example 763]
Measure: IC50
Value Reported: 9.05e-08

Compound: CC#Cc1sc2ncnc(OC(Cc3ccccc3OC)C(=O)O)c2c1-c1ccc(OCCN2CCCC2)c(Cl)c1C (stereo not drawn)
Measure: IC50
Value Reported: 8.6e-09

Compound: CCc1sc2ncnc(OC(Cc3ccccc3)C(=O)O)c2c1-c1cc(N)c(O)c(Cl)c1C (stereo not drawn)
Measure: IC50
Value Reported: 3.2e-08

Compound: Cc1c(-c2c(-c3cccc(F)c3F)sc3ncnc(OC(Cc4ccccc4OCc4ccnn4C(C)(C)C)C(=O)O)c23)ccc(OCCN(C)C)c1Cl (stereo not drawn)
Measure: IC50
Value Reported: 4.65e-09

Compound: CCCCn1nccc1COc1ccccc1CC(Oc1ncnc2sc(-c3ccc(OCC)cc3)c(-c3ccc(OCCN4CCN(C)CC4)c(Cl)c3C)c12)C(=O)O (stereo not drawn)
Measure: IC50
Value Reported: 5.7e-09

Compound: Cc1c(-c2c(-c3ccc(F)cc3)sc3ncnc(OC(Cc4ccccc4OCC4CCCO4)C(=O)O)c23)ccc(OCC2CCN(C)C2)c1Cl (stereo not drawn)
Measure: IC50
Value Reported: 2.3e-08

Compound: COc1ccc(COc2ccccc2CC(Oc2ncnc3sc(-c4cccc(F)c4)c(-c4ccc(OCCN5CCN(C)CC5)c(Cl)c4C)c23)C(=O)O)cc1 (stereo not drawn)
Measure: IC50
Value Reported: 2.4e-09

Compound: COc1ccccc1-c1nccc(COc2ccccc2CC(Oc2ncnc3sc(-c4ccc(OCCN5CCOCC5)cc4)c(-c4ccc(OCCN5CCN(C)CC5)c(Cl)c4C)c23)C(=O)O)n1 (single isomer, unassigned) [Example 764]
Measure: IC50
Value Reported: 1.35e-09

Compound: COc1cccc(-c2sc3ncnc(OC(Cc4ccccc4OC)C(=O)O)c3c2-c2ccc(OCCN3CCN(C)CC3)c(Cl)c2C)c1 (stereo not drawn)
Measure: IC50
Value Reported: 2.4e-08

Compound: CC#Cc1sc2ncnc(O[C@H](Cc3ccccc3OCc3ccnc(-c4ccncc4C)n3)C(=O)O)c2c1-c1ccc(OCCN2CCN(C)CC2)c(Cl)c1C
Measure: IC50
Value Reported: 5.2e-09
